Simple rule here: glass transition temperature less than 80 °C is Condition met, otherwise Condition not met.

Solved cases below.
{"compound": "*Oc1ccc(C2(c3ccc(Oc4ccc(C(=O)c5c(C(=O)c6ccc(*)cc6)c(-c6ccccc6)c(-c6ccc7ccccc7c6)c(-c6ccc7ccccc7c6)c5-c5ccccc5)cc4)cc3)c3ccccc3-c3ccccc32)cc1 (repeat unit)", "assigned-category": "Condition not met"}
{"compound": "*C(=O)c1ccc2c(c1)C(=O)N(c1cccc(Oc3cccc(Oc4cccc(N5C(=O)c6ccc(*)cc6C5=O)c4)c3)c1)C2=O (repeat unit)", "assigned-category": "Condition not met"}
{"compound": "*CC(*)(C)C(=O)OCCC(C)(C)C (repeat unit) [Poly(3,3-dimethylbutyl methacrylate)]", "assigned-category": "Condition met"}
{"compound": "*O[Si](C)(C)c1cc(OCCOCc2ccccc2)c([Si](*)(C)C)cc1OCCOCc1ccccc1 (repeat unit)", "assigned-category": "Condition met"}

Item *CC(CC)S* (repeat unit) : glass transition temperature beneath 80 °C, strictly? Condition met

Item *c1ccc(C(c2ccc(N3C(=O)c4ccc(OCCN(CCOc5ccc6c(c5)C(=O)N(*)C6=O)c5ccc(/C=C/c6ccc([N+](=O)[O-])cc6)cc5)cc4C3=O)cc2)(C(F)(F)F)C(F)(F)F)cc1 (repeat unit) : glass transition temperature beneath 80 °C, strictly? Condition not met

All values here come from the PolyMetriX glass transition set.
